Cited source: PubChem BioAssay AID1508624

experiment: Primary qHTS for Identification of Small Molecule Activators of Huntingtin-Antisense Promoter Activity; conditions: HEK293 HTT-AS promoter firefly luciferase reporter (activity 0% = vehicle and -100% = no light), 24 h; series mostly up to 57.5 µM; further: nearly all actives have a fitted effect of over 55% in size
In all, about 48,000 compounds went through this assay and about 120 (0.25%) were called active. About 4% were inconclusive and are not listed. Only a selection was taken, and actives are over-represented in it overall.
property_name: activity change, positive = activation

[[record]]
compound = "CCCN(C(=O)Cn1cc(S(=O)(=O)N2CCN(c3ccccc3F)CC2)c2ccccc2c1=O)c1cccc(C)c1"
recorded_value = "inactive"

[[record]]
compound = "CSc1nc(Nc2ccc(F)cc2)cc(-c2ccccc2)n1"
recorded_value = "inactive"

[[record]]
compound = "CC[C@]12C=CCN3CC[C@@]4(c5cc([C@@]6(C(=O)OC)C[C@H]7C[C@@H](C(C)(F)F)CN(Cc8c6[nH]c6ccccc86)C7)c(OC)cc5N(C)[C@H]4[C@@](O)(C(=O)OC)[C@H]1OC(C)=O)[C@@H]32"
recorded_value = "inactive"

[[record]]
compound = "O=C(NCc1ccc(Cl)cc1)c1ccc2c(c1)nnn2C1CCCC1"
recorded_value = "inactive"


---

experiment: Primary qHTS for Identification of Small Molecule Activators of Huntingtin-Antisense Promoter Activity; settings: HEK293 HTT-AS promoter firefly luciferase reporter (activity 0% = vehicle and -100% = no light), 24 h; series mostly up to 57.5 µM; further: nearly all actives have a fitted effect of over 55% in size
Screen size: about 48,000 compounds; about 120 (0.25%) were called active. About 4% were inconclusive and are not listed. The full list was thinned out, with actives kept by preference.
property_name: activity change, positive = activation

[[record]]
compound = "Cc1ccc(Cl)cc1N1CCN(C(=O)c2cn(C)c3ccc(S(=O)(=O)N(C)C4CCCCC4)cc3c2=O)CC1"
property_name = "activity change, positive = activation"
recorded_value = "inactive"

[[record]]
compound = "COc1cccc(NC(=O)N(Cc2cn(C)c3ccccc23)C2CCCCCC2)c1"
property_name = "activity change, positive = activation"
recorded_value = "inactive"

[[record]]
compound = "Fc1ccc(CN2CCc3nc(Nc4ccccc4)ncc3C2)cc1F"
property_name = "activity change, positive = activation"
recorded_value = "inactive"

[[record]]
compound = "CCCN(CCC)C(=O)C(Cc1ccccc1)NS(=O)(=O)c1ccc2c(c1)c(=O)n(C)c(=O)n2C (stereo unspecified)"
property_name = "activity change, positive = activation"
recorded_value = "inactive"

[[record]]
compound = "CCCOc1ccc(-c2cccc(NS(=O)(=O)c3ccccc3)c2)nn1"
property_name = "activity change, positive = activation"
recorded_value = "inactive"

[[record]]
compound = "CCn1cc(C(=O)N2CCN(c3cc(C)ccc3C)CC2)c(=O)c2cc(S(=O)(=O)N(C)C3CCCCC3)ccc21"
property_name = "activity change, positive = activation"
recorded_value = "inactive"

[[record]]
compound = "Cc1ccc(OCC(=O)OCc2cc(=O)n3nc(C4CC4)sc3n2)cc1C"
property_name = "activity change, positive = activation"
recorded_value = "inactive"

[[record]]
compound = "CCOC(=O)c1c(NC(=O)Cc2coc3ccc(CC)cc23)sc2c1CCC2"
property_name = "activity change, positive = activation"
recorded_value = "inactive"

[[record]]
compound = "CCOc1ccc(NC(=O)CC2C(=O)N(c3cccc(OC)c3)C(=O)N2C2CCCCC2)cc1 (stereo unspecified)"
property_name = "activity change, positive = activation"
recorded_value = "inactive"

[[record]]
compound = "COc1cccc(CNC(=O)Cn2ncn3c(cc4ccccc43)c2=O)c1"
property_name = "activity change, positive = activation"
recorded_value = "inactive"


Lab note: measured activity change, positive = activation of CCCc1nn2c(=O)cc(COC(=O)c3ccc(NC(=O)COc4ccc(F)cc4)cc3)nc2s1 was inactive

Recorded result, Cc1cccc(N2CCN(C(=O)CCn3c(=O)c4cccn4c4cccnc43)CC2C)c1 (stereo unspecified) , activity change, positive = activation: inactive

activity change, positive = activation in this record for CCC(=O)N1c2ccccc2CC1C(=O)N1CCN(c2ccccc2F)CC1 (stereo unspecified) : inactive
